Provenance of the data: patent US20150368338A1

EXPERIMENTAL_SYSTEM: T1, human IFN-ω (human, UniProt P05000 24-195)
T1 construct: Recombinant, HEK293; also called interferon omega
PROTOCOL: ProteOn SPR, cell supernatant;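 also: each binding measurement used just a single antigen concentration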
MEASURED_QUANTITY: Kd (nM)
Answers are plain numbers, in nM.

| BINDER | Kd (nM) |
| --- | --- |
| IFWM3410 (antibody, IgG1, V domains shown, mAb; IgG1/kappa said of the parent and of selected mAbs; also called IFWB3145) VH: EVQLVQSGAEVKKPGESLKISCKGSGYSFTSYWIGWVRQMPGKGLEWMGIIDPSDSDTRYSPSFQGQVTISADKSISTAYLQWSSLKASDTAMYYCARHPGLAWAPDFDYWGQGTLVTVSS VL: DIQMTQSPSSLSASVGDRVTITCRASQSIANTNLNWYQQKPGKAPKLLIHWASSLQSGVPSRFSGSGSGTDFTLTISSLQPEDFATYYCQQWYDNPLTFGQGTKVEIK | 0.029 |

Ask: Report Kd for IFWM3371 (antibody, IgG1, V domains shown, mAb; IgG1/kappa said of the parent and of selected mAbs; also called IFWB3106) VH: EVQLVQSGAEVKKPGESLKISCKGSGYSFTSYWIGWVRQMPGKGLEWMGIIDPSDSDTAYSPSFQGQVTISADKSISTAYLQWSSLKASDTAMYYCARHPGLNWAPDFDYWGQGTLVTVSS VL: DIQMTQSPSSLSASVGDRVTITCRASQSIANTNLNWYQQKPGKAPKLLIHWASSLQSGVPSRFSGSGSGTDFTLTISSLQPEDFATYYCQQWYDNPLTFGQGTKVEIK please.
Reply: 0.018
